Attribute: growth
# Tested on: E. coli TESEC Mtb DapB
# TEST METHOD NOTES: growth (OD600 after 10 h); higher = more growth (less inhibition)
# ASSAY CONTEXT: arabinose induction (level): High; compound 0.1 mM; raw OD600 reference: median of DMSO wells […], cell-free background 0.041
Where a name gives a salt, the structure may show the parent alone.

Below: 5 compounds and their reported growth.
1. OCc1cc(C(O)CNCCCCCCOCCCCc2ccccc2)ccc1O (centres undefined)
0.208
2. COc1ccc(C(=O)NCc2cccnc2)cc1C(=O)NCc1cccnc1 [Picotamide monohydrate]
0.189
3. CC(=O)OCC(=O)[C@@]1(O)CC[C@H]2[C@@H]3CCC4=CC(=O)CC[C@]4(C)[C@@]3(F)[C@@H](O)C[C@@]21C [Fludrocortisone acetate]
0.188
4. COc1ccc(OC)c(C(O)CNC(=O)CN)c1 (centres undefined) [Midodrine hydrochloride]
0.188
5. Cc1cn([C@H]2C=C[C@@H](CO)O2)c(=O)[nH]c1=O
0.192

Lab note: COc1cc(N)c(Cl)cc1C(=O)NC1CCN(Cc2ccccc2)CC1 [Clebopride maleate] gave growth of 0.2

What the record says about NC(=O)c1ccc[n+]([C@@H]2O[C@H](COP(=O)([O-])OP(=O)(O)OC[C@H]3O[C@@H](n4cnc5c(N)ncnc54)[C@H](O)[C@@H]3O)[C@@H](O)[C@H]2O)c1 [Nadide] : growth is 0.21

Value of measured growth for the entry Clc1ccc2nsnc2c1NC1=NCCN1 [Tizanidine HCl] : 0.216

Lab note: Clc1ccc(COC(Cn2ccnc2)c2ccc(Cl)cc2Cl)c(Cl)c1 (centres undefined) gave growth of 0.0949

# growth (compound: O=C(CCCN1CCC(O)(c2ccc(Cl)cc2)CC1)c1ccc(F)cc1 ) is 0.187
